assay: NOD1 signaling inhibitors, primary screen, cell-based, luminescence, uHTS (AID 1578); settings: NOD1-driven NF-kB luciferase reporter cells, at 4 µM, stronger effect = higher value;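 also: HEK-293T reporter cells stimulated with the NOD1 agonist gamma-tri-DAP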
Screen size: about 290,000 compounds; about 3,000 (1%) were called active. What follows is part of a selection rich in actives, with near analogues and random picks from the rest.
outcomeMeasure: inhibition (%)
Use % as the unit, but write only the number.

# recordSmiles, endpointUnit, measurement
measured = [
    ("Cc1ccc2nc3sc(C(=O)Nc4ccc(N5CCOCC5)cc4)c(N)c3cc2c1", "%", -21.9),
    ("O=c1c2cnn(-c3ccccc3)c2nc(-c2cccs2)n1-c1cccc(Cl)c1", "%", -3.1),
    ("CCOC(=O)CC(=O)CSc1nc2ccccc2c(=O)n1-c1ccc(C(=O)N2CCOCC2)cc1", "%", 6.8),
    ("Cc1ccc(C(C)C)c(OCCNC(=O)c2ccccc2O)c1", "%", -22.6),
]

Now look at this entry.
Query :: Any idea what inhibition was measured for CCN(CCCNC(=O)c1c(C)cc(=O)oc1C)c1ccccc1 ?
Result :: 8.4
